Entries and their half-life
methodSummary: IV PK (plasma concentrations after intravenous administration)
Format: in vivo, mice
conditionsUsed: mouse; IV PK (1 mg kg^−1); mice; plasma
Please state the figure in min; there is no need to write the unit.

COCCOc1ccc(-c2cn(-c3ccccc3)c3nc[nH]c(=O)c23)cc1 : 36

Here's the next entry for you.
Ask: Given Oc1ncnc2c1c(-c1ccccc1)cn2-c1ccccc1 , respond with its half-life.
Reply: 6

---

studyTarget: PDGFRA (Homo sapiens)
Construct: lines 1-140) and Reaction Biology
Sequence (P16234 24-1089): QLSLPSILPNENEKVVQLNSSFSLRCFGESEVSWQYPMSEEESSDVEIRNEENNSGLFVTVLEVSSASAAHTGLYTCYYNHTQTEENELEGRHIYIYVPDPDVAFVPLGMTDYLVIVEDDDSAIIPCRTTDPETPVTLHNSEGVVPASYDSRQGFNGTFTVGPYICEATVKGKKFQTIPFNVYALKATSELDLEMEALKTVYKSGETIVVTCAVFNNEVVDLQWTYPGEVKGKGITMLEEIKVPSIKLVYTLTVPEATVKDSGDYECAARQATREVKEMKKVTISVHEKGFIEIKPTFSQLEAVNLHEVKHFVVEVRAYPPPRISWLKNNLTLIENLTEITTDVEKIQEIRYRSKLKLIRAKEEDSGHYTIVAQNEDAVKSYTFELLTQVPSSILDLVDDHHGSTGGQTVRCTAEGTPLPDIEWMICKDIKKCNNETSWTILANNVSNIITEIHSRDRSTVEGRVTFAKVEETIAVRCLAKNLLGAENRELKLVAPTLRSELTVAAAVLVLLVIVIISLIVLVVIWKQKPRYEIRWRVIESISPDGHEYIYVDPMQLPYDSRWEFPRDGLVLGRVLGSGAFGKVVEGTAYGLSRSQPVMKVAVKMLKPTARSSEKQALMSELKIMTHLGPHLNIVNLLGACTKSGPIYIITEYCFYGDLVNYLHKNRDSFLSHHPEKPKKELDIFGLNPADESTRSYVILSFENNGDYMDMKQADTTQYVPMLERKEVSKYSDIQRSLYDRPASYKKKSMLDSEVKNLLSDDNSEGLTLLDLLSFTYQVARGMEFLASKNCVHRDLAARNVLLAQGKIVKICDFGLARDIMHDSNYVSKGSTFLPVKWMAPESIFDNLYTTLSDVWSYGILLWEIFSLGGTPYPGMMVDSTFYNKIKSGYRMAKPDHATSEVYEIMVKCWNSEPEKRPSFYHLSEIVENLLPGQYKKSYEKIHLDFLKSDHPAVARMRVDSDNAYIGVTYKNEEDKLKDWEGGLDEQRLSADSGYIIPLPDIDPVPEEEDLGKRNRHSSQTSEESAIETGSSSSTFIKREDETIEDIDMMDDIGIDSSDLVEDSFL
methodSummary: Dundee kinase panel
Format: biochemical
conditionsUsed: read-out: residual activity
quantity: remaining activity at 1 µM (%)
Please state the figure in %; there is no need to write the unit.

Oc1ncnc2c1c(-c1ccccc1)cn2-c1ccccc1 [F1386-0303] : 93
COCCOc1ccc(-c2cn(-c3ccccc3)c3nc[nH]c(=O)c23)cc1 [DMX-5804] : 88
O=C1Nc2ccc(I)cc2/C1=C/c1cc(Br)c(O)c(Br)c1 [GW5074] : 24

Here's the next entry for you.
Ask: Given O=C1Cc2c([nH]c3ccc(Br)cc23)-c2ccccc2N1 [Kenpaullone] , respond with its remaining activity at 1 µM.
Reply: 48

---

methodSummary: IV PK (plasma concentrations after intravenous administration)
Format: in vivo, mice
conditionsUsed: mouse; IV PK (1 mg kg^−1); mice; plasma
quantity: Cmax
Your reply should be a number followed by the unit it is expressed in.

COCCOc1ccc(-c2cn(-c3ccccc3)c3nc[nH]c(=O)c23)cc1 : 1590 nM

Ask: Given Oc1ncnc2c1c(-c1ccccc1)cn2-c1ccccc1 , respond with its Cmax.
Reply: 3260 nM

---

Entries and their remaining activity at 1 µM
studyTarget: Aurora B (Homo sapiens)
Construct: lines 1-140) and Reaction Biology
Sequence (Q96GD4 whole entry): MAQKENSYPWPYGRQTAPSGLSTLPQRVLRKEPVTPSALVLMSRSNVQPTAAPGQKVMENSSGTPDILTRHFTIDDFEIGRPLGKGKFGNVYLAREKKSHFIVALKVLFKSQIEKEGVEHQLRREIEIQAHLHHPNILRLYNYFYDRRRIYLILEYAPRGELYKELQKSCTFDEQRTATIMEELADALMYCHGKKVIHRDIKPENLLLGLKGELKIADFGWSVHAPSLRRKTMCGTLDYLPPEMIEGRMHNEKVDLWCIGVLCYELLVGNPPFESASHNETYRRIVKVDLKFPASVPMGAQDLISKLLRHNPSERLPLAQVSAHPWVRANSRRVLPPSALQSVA
methodSummary: Dundee kinase panel
Type: biochemical
conditionsUsed: read-out: residual activity
Your reply should be a number followed by the unit it is expressed in.

As a guide, the following entries are already answered.
O=C1Cc2c([nH]c3ccc(Br)cc23)-c2ccccc2N1 [Kenpaullone] : 46%
Oc1ncnc2c1c(-c1ccccc1)cn2-c1ccccc1 [F1386-0303] : 85%
COCCOc1ccc(-c2cn(-c3ccccc3)c3nc[nH]c(=O)c23)cc1 [DMX-5804] : 29%

Ask: Given O=C1Nc2ccc(I)cc2/C1=C/c1cc(Br)c(O)c(Br)c1 [GW5074] , respond with its remaining activity at 1 µM.
Reply: 29%

---

studyTarget: CHK1 (Homo sapiens, UniProt O14757)
Construct: lines 1-140) and Reaction Biology
Sequence (O14757 whole entry): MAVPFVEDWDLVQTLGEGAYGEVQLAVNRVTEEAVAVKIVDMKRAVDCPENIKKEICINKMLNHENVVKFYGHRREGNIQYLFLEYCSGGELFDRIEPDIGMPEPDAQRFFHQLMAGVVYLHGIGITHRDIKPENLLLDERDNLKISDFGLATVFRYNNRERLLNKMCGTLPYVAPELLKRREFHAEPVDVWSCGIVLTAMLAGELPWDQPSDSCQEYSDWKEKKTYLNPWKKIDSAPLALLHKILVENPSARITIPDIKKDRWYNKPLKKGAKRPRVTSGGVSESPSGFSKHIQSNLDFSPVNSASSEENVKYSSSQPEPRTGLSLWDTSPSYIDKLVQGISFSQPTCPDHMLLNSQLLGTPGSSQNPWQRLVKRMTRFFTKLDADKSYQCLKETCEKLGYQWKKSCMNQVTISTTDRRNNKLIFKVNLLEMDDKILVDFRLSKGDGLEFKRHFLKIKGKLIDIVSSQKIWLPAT
methodSummary: Dundee kinase panel
Format: biochemical
conditionsUsed: read-out: residual activity
Entries and their remaining activity at 1 µM
Please state the figure in %; there is no need to write the unit.

COCCOc1ccc(-c2cn(-c3ccccc3)c3nc[nH]c(=O)c23)cc1 : 86
O=C1Cc2c([nH]c3ccc(Br)cc23)-c2ccccc2N1 : 68
Oc1ncnc2c1c(-c1ccccc1)cn2-c1ccccc1 : 98

Here's the next entry for you.
Ask: Given O=C1Nc2ccc(I)cc2/C1=C/c1cc(Br)c(O)c(Br)c1 , respond with its remaining activity at 1 µM.
Reply: 33

---

Entries and their remaining activity at 1 µM
studyTarget: TBK1 (Homo sapiens)
Construct: lines 1-140) and Reaction Biology
Sequence (Q9UHD2 1-729): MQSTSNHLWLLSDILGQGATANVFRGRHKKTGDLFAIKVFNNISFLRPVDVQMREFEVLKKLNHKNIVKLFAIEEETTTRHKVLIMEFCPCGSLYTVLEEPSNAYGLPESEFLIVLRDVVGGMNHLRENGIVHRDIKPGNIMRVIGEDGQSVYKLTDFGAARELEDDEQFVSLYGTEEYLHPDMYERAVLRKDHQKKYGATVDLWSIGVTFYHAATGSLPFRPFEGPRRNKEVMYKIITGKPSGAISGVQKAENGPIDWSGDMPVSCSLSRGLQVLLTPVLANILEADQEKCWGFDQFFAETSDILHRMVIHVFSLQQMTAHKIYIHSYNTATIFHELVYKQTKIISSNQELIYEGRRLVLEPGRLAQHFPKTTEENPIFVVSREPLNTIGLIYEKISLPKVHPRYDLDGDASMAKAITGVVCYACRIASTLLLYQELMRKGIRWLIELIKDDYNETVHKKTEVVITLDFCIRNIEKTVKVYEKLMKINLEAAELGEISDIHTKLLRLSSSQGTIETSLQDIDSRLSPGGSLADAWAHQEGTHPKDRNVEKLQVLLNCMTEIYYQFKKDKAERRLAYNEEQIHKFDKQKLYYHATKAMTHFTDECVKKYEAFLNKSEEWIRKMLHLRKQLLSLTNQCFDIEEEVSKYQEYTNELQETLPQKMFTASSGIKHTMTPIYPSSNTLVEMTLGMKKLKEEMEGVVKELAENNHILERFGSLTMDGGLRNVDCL
methodSummary: Dundee kinase panel
Format: biochemical
conditionsUsed: read-out: residual activity
Please state the figure in %; there is no need to write the unit.

O=C1Cc2c([nH]c3ccc(Br)cc23)-c2ccccc2N1 [Kenpaullone] : 90
COCCOc1ccc(-c2cn(-c3ccccc3)c3nc[nH]c(=O)c23)cc1 [DMX-5804] : 48
O=C1Nc2ccc(I)cc2/C1=C/c1cc(Br)c(O)c(Br)c1 [GW5074] : 83

Here's the next entry for you.
Ask: Given Oc1ncnc2c1c(-c1ccccc1)cn2-c1ccccc1 [F1386-0303] , respond with its remaining activity at 1 µM.
Reply: 97

Numbers sourced from paper PMC6458995.
